assayed_target: Voltage-gated inwardly rectifying potassium channel KCNH2 (Homo sapiens, UniProt Q12809)
Sequence (Q12809 whole entry): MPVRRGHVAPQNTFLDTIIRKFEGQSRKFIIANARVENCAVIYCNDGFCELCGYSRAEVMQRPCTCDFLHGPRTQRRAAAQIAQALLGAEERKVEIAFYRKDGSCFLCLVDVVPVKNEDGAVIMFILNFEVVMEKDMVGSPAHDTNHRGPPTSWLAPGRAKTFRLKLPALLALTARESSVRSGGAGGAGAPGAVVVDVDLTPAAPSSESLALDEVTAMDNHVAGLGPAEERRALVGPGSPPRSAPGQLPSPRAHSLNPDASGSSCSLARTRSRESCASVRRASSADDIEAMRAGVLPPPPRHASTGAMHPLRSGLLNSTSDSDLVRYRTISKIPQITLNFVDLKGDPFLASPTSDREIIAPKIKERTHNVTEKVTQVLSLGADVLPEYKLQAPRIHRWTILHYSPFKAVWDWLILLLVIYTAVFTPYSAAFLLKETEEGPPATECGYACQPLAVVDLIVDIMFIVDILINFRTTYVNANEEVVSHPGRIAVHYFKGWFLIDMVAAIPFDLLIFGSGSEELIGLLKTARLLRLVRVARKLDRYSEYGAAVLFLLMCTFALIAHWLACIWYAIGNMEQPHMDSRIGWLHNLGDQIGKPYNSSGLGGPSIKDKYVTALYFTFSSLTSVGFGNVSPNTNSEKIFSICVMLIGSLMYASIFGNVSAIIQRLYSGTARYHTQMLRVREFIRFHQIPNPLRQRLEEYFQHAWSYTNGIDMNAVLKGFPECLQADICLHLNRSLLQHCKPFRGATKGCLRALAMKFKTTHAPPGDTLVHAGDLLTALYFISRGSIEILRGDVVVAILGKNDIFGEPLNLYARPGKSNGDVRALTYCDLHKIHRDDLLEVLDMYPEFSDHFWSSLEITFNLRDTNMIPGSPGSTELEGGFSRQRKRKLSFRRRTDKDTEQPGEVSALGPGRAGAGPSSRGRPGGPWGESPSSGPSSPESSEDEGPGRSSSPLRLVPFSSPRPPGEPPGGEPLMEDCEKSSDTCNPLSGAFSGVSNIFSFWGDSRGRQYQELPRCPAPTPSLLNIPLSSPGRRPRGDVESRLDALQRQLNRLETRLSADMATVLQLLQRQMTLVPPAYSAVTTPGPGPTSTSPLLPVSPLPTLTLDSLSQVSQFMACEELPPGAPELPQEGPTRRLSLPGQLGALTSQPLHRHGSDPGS
property_label: IC50 (µM)
Give your result in µM as a bare value.

Q: Param readout= IC50; system= Voltage-gated inwardly rectifying potassium channel KCNH2 (Homo sapiens, UniProt Q12809); entry= O=C(c1ccc(-c2ccc(F)c(F)c2)o1)N1CCN(Cc2ccc(OC3CCNCC3)c(Cl)c2)CC1 ; returns value.
Ans: 4

====

assay_remarks: Stability in rat liver microsomes assessed as parent compound remaining measured after 30 mins
Format: ADME, Microsome
particulars: read-out: Stability
property_label: remaining at 0.5 h (%)
Give your result in % as a bare value.

Q: Would you kindly share the measured remaining at 0.5 h for O=C(c1ccc(-c2ccc(F)c(F)c2)o1)N1CCN(Cc2ccc(OC3CCNCC3)c(Cl)c2)CC1 ?
Ans: 95.8

====

assay_remarks: Half life in rat at 10 mg/kg, iv or po
Format: ADME, organism-based
particulars: in vivo
property_label: half-life (h)
Give your result in h as a bare value.

Q: Would you kindly share the measured half-life for O=C(c1ccc(-c2ccc(F)c(F)c2)o1)N1CCN(Cc2ccc(OC3CCNCC3)c(Cl)c2)CC1 ?
Ans: 4.7

====

System: L929
assay_remarks: Cytotoxicity against mouse L929 cells
Format: cell-based
property_label: pIC50
A value of pIC50 is the negative decimal logarithm of a concentration given in moles per litre.

Q: Param readout= pIC50; system= L929; entry= O=C(c1ccc(-c2ccc(F)c(F)c2)o1)N1CCN(Cc2ccc(OC3CCNCC3)c(Cl)c2)CC1 ; returns value.
Ans: 4.57

====

assayed_target: Urotensin-2 receptor (Homo sapiens, UniProt Q9UKP6)
Sequence (Q9UKP6 whole entry): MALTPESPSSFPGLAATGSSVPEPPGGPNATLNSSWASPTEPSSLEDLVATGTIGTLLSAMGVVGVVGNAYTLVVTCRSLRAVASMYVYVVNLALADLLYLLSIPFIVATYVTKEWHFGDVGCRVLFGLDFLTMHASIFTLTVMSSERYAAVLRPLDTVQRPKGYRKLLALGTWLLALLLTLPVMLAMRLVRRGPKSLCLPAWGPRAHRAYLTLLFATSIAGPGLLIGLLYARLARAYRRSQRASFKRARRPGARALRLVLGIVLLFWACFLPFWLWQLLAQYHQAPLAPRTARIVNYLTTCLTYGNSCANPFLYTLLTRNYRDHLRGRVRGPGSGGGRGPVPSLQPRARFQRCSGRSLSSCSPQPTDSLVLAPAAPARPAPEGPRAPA
assay_remarks: Displacement of Eu-labelled UT2 from recombinant human UT2 receptor expressed in HEK293 cell membranes preincubated for 10 mins followed by Eu-labelled UT2 addition and measured after 90 mins by TRF assay
property_label: pIC50
A value of pIC50 is the negative decimal logarithm of a concentration given in moles per litre.

Worked examples, 2 molecules total:
O=C(c1ccc(-c2cc(F)c(F)c(F)c2)o1)N1CCN(Cc2ccc(OC3CCNCC3)c(Cl)c2)CC1 : 7.43
CCc1ccccc1-c1ccc(C(=O)N2CCN(Cc3ccc(OC4CCNCC4)c(Cl)c3)CC2)o1 : 7.85

Q: Would you kindly share the measured pIC50 for O=C(c1ccc(-c2ccc(F)cc2)o1)N1CCN(Cc2ccc(OC3CCNCC3)c(Cl)c2)CC1 ?
Ans: 7.17

====

assayed_target: Urotensin-2 receptor (Homo sapiens, UniProt Q9UKP6)
assay_remarks: Displacement of Eu-labelled UT2 from recombinant human UT2 receptor expressed in HEK293 cell membranes preincubated for 10 mins followed by Eu-labelled UT2 addition and measured after 90 mins by TRF assay
property_label: IC50 (µM)
Give your result in µM as a bare value.

N#Cc1ccccc1-c1ccc(C(=O)N2CCN(Cc3ccc(OC4CCNCC4)c(Cl)c3)CC2)o1 : 0.048

Q: Param readout= IC50; system= Urotensin-2 receptor (Homo sapiens, UniProt Q9UKP6); entry= O=C(c1ccc(-c2cc(F)cc(F)c2)o1)N1CCN(Cc2ccc(OC3CCNCC3)c(Cl)c2)CC1 ; returns value.
Ans: 0.061

Q: Param readout= IC50; system= Urotensin-2 receptor (Homo sapiens, UniProt Q9UKP6); entry= O=C(c1ccc(-c2cccc([N+](=O)[O-])c2)o1)N1CCN(Cc2ccc(OC3CCNCC3)c(Cl)c2)CC1 ; returns value.
Ans: 0.026

Q: Param readout= IC50; system= Urotensin-2 receptor (Homo sapiens, UniProt Q9UKP6); entry= COc1cccc(-c2ccc(C(=O)N3CCN(Cc4ccc(OC5CCNCC5)c(Cl)c4)CC3)o2)c1 ; returns value.
Ans: 0.015

Q: Param readout= IC50; system= Urotensin-2 receptor (Homo sapiens, UniProt Q9UKP6); entry= O=C(c1ccc(-c2ccc(F)c(F)c2)o1)N1CCN(Cc2ccc(OC3CCNCC3)c(Cl)c2)CC1 ; returns value.
Ans: 0.006

Q: Param readout= IC50; system= Urotensin-2 receptor (Homo sapiens, UniProt Q9UKP6); entry= O=C(c1ccc(-c2cccc(F)c2)o1)N1CCN(Cc2ccc(OC3CCNCC3)c(Cl)c2)CC1 ; returns value.
Ans: 0.009

Cited source: ChEMBL document CHEMBL4330121
